Target: Axl (UniProt P30530)
Sequence (P30530 26-451 limits assumed): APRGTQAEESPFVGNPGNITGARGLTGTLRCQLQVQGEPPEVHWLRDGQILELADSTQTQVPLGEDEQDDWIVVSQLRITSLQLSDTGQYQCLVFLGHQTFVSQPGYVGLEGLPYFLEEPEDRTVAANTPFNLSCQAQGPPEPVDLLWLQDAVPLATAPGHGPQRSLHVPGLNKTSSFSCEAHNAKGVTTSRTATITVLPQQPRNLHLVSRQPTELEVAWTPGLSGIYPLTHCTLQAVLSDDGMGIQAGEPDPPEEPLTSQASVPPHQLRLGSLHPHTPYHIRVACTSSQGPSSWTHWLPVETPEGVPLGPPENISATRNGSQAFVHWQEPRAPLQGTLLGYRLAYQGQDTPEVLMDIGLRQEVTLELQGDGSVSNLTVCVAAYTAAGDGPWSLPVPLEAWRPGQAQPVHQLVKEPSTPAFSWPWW
Test: ELISA, 1:9 dilution
metric: Affinity ELISA CPE mutant ratio (1:9, pH 6.0/7.4)

>>> endpoint_value("HC-S059T (antibody, V domains shown) VH: EVQLVQSGAEVKKPGATVKISCKVSGYSFTGHTMNWIRQPPGKGLEWIGLIKPSNGGTTYNQKFKGRVTISADKSISTAYLQWSSLKASDTAMYYCAHGHYESYFAMDYWGQGTLVTVSS VL: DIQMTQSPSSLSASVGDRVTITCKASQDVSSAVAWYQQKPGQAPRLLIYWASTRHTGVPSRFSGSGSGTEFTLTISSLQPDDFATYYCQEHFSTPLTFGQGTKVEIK")
1.93
>>> endpoint_value("HC-W110H (antibody, V domains shown) VH: EVQLVQSGAEVKKPGATVKISCKVSGYSFTGHTMNWIRQPPGKGLEWIGLIKPSNGGTSYNQKFKGRVTISADKSISTAYLQWSSLKASDTAMYYCAHGHYESYFAMDYHGQGTLVTVSS VL: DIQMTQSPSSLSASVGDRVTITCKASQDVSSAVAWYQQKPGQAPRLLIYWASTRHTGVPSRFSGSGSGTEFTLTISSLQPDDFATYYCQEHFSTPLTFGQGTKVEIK")
0.932
>>> endpoint_value("HC-E102F (antibody, V domains shown) VH: EVQLVQSGAEVKKPGATVKISCKVSGYSFTGHTMNWIRQPPGKGLEWIGLIKPSNGGTSYNQKFKGRVTISADKSISTAYLQWSSLKASDTAMYYCAHGHYFSYFAMDYWGQGTLVTVSS VL: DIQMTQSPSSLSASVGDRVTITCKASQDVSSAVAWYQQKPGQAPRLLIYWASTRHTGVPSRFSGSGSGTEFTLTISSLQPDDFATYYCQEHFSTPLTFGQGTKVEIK")
1.36
